Data credit: paper PMC10731658

Tested on: HepG2 cells
ASSAY REMARKS: Flow cytometric detection of cell death (Annexin V & Dead Cell Assay)
Format: cell-based, human
MEASUREMENT SETUP: 4 h, IC50 concentration
Hi there, I'd appreciate the recorded decrease in percentage of live cells vs control for every entry that follows.
// return numeric value only (unit: %, not printed)

Q) Which decrease in percentage of live cells vs control value belongs to `NC(=O)c1cc[n+](C/C=C/C[n+]2ccc(C=NO)cc2)cc1.[Br-].[Br-]` ?
A) 8.8

Q) Item: CC(C)(C)OO [TBHP, tert-butyl hydroperoxide, reference compound]
A) 14.6

Q) Again, but for `O/N=C/c1cc[n+](CCCC[n+]2ccc(/C=N/O)cc2)cc1`
A) 8.3

Q) // same read-out, input: `NC(=O)c1cc[n+](CCCC[n+]2ccc(C=NO)cc2)cc1.[Br-].[Br-]`
A) 11.2
